The origin of these recorded values is patent US8609661B2.

# Assay System: human wildtype CFTR (Homo sapiens)
# Construct: expressed in transfected cells; host or cells: Fischer rat thyroid (FRT) cells
# Sequence (P13569 whole entry): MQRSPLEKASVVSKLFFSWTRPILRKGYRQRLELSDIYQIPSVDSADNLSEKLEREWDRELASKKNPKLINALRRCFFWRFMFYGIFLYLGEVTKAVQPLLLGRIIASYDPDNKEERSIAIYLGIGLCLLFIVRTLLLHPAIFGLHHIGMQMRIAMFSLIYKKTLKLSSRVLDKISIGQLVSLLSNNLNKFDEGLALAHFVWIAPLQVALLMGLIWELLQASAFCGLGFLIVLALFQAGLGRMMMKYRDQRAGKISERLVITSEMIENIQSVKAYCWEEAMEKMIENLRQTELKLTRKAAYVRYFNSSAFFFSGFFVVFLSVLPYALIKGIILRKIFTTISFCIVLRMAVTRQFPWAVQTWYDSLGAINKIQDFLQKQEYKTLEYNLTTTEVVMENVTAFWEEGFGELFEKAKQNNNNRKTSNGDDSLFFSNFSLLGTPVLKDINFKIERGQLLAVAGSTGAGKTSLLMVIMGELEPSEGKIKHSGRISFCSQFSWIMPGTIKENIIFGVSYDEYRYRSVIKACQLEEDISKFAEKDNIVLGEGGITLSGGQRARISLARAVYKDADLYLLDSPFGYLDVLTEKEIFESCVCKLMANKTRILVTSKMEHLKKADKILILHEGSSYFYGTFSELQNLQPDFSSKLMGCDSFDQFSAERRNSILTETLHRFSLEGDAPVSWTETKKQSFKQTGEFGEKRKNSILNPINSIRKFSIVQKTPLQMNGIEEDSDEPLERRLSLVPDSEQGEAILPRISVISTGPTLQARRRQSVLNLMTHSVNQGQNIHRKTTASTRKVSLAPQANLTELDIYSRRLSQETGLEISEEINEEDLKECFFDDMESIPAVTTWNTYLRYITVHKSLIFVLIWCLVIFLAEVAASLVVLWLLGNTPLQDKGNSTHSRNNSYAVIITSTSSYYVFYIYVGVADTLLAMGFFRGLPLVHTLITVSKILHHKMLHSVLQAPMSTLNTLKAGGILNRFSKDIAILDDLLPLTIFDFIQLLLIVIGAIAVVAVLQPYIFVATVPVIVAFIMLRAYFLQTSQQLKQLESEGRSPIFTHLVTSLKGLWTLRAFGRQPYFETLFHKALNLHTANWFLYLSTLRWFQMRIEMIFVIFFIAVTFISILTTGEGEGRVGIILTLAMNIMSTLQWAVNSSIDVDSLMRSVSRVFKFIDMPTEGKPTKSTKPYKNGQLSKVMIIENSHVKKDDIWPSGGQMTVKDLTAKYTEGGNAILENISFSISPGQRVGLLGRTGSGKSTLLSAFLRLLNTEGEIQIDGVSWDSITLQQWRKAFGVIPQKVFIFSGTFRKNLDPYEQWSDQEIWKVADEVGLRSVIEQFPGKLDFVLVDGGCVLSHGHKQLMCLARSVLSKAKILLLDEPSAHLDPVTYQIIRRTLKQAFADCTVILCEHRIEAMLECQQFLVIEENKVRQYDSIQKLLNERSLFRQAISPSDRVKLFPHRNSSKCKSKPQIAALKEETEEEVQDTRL
# Test Name: Fluorescence platereader assay of CFTR-mediated iodide influx (YFP quenching) in FRT cells
# Format: cell-based
# Condition Details: FRT; Table 2; screening, 25 μM; read-out: % Inhibition at 25 μM
# Procedure: A. Cell lines and compounds—Fischer rat thyroid (FRT) cells co-expressing human wildtype CFTR and the halide indicator YFP-H148Q/1152L were generated as described (see, e.g., Ma et al., J. Clin. Invest. 110:1651-1658 (2002)). […] B. Compound Screening—Assays were performed using an automated screening platform (Beckman) equipped with FLUOStar fluorescence platereaders (BMG Lab Technologies, Offenburg, Germany) as described (see Ma et al., supra). […]
Assign t to entries whose inhibition at 25 µM meets or exceeds 80%; assign f to the rest.

Is inhibition at 25 µM at least 80%? Consider Cc1ccc(C2Nc3ccccc3-n3c(-c4ccccc4)c4c(=O)n(C)c(=O)n(C)c4c32)o1 (racemic) [PPQ-102]
t

Now consider COc1ccc(O)c(C2Nc3ccccc3-n3c(-c4ccccc4C)c4c(=O)n(C)c(=O)n(C)c4c32)c1 (centres unmarked) and answer again.
f

What about this molecule? Cn1c(=O)c2c(-c3ccccc3F)n3c(c2n(C)c1=O)C(c1cccc(Cl)c1)Nc1ccccc1-3 (centres unmarked) [PPQ-214]
t

Now the same for Cc1ccc(C2Nc3ccccc3-n3c(-c4ccccc4)c4c(=O)n(C)c(=O)n(C)c4c32)cc1 (centres unmarked)
f

Now try Cc1cccc(-c2c3c(=O)n(C)c(=O)n(C)c3c3n2-c2ccccc2NC3c2ccccc2)c1 (centres unmarked) [PPQ-250] .
f

Let us now turn to Cn1c(=O)c2c(-c3ccccc3F)n3c(c2n(C)c1=O)C(c1ccc(Cl)cc1)Nc1ccccc1-3 (centres unmarked)
f

Same read-out for Cc1cc2c(cc1C)-n1c(-c3ccccc3)c3c(=O)n(C)c(=O)n(C)c3c1C(c1ccc(O)cc1)N2 (centres unmarked) [PPQ-203] ?
t
